Sourced from the NIST ThermoML archive (doi:10.1016/j.jct.2008.07.005)

Experiment: xn = mol fraction of the nth substance listed
Conditions: 293.15 K; 98.93 kPa; Liquid; x1 = 0.005
Assay endpoint: mass density (kg/m3)
Write the value in kg/m3 as a bare number.

Worked examples, 2 compounds total:
[[record]]
compound = "CCCO [propan-1-ol] + O"
assay_endpoint = "mass density"
measured_number = 994.95

[[record]]
compound = "CC(O)CO (centres undefined) [1,2-propanediol] + O"
assay_endpoint = "mass density"
measured_number = 999.55


IN: mass density lookup needed for OCCCO [propan-1,3-diol] + O , thanks.
OUT: 999.44

IN: Recorded mass density of OCC(O)CO [glycerol] + O , please.
OUT: 1004.14

###

Assay: xn = mol fraction of the nth substance listed
Conditions: 288.15 K; 98.93 kPa; Liquid; x1 = 0.1
As shown below, each of these compounds has a reported mass density value.
Your answer is read as kg/m3, so omit the unit and give the number.

[[record]]
compound = "CC(O)CO (centres undefined) [1,2-propanediol] + O"
measured_number = 1027.89

[[record]]
compound = "OCCCO [propan-1,3-diol] + O"
measured_number = 1024.07

[[record]]
compound = "OCC(O)CO [glycerol] + O"
measured_number = 1091.17


IN: Look up mass density for this compound: CCCO [propan-1-ol] + O
OUT: 958.48

###

Assay: xn = mol fraction of the nth substance listed
Conditions: 283.15 K; 98.93 kPa; Liquid; x1 = 0.002
// reported mass density for each item listed
State the answer as a number, implicitly in kg/m3.

Examples with their reported mass density follow.
[[record]]
molecule = "CCCO [propan-1-ol] + O"
measured_number = 998.53

[[record]]
molecule = "OCCCO [propan-1,3-diol] + O"
measured_number = 1000.12

[[record]]
molecule = "OCC(O)CO [glycerol] + O"
measured_number = 1002.15


Let us move to another entry and its mass density.
IN: Quick one: mass density of CC(O)CO (centres undefined) [1,2-propanediol] + O ?
OUT: 1000.28

###

Assay: xn = mol fraction of the nth substance listed
Conditions: 283.15 K; 98.93 kPa; Liquid; x1 = 0.065
# maps each entry to its mass density
Dear colleague, please return just the value in kg/m3, with no unit written.

[[record]]
compound = "OCCCO [propan-1,3-diol] + O"
assay_endpoint = "mass density"
unit_abbreviation = "kg/m3"
measured_number = 1017.32

[[record]]
compound = "CC(O)CO (centres undefined) [1,2-propanediol] + O"
assay_endpoint = "mass density"
unit_abbreviation = "kg/m3"
measured_number = 1020.67

[[record]]
compound = "CCCO [propan-1-ol] + O"
assay_endpoint = "mass density"
unit_abbreviation = "kg/m3"
measured_number = 975.01


# input for lookup
IN: Which mass density is reported for this compound? OCC(O)CO [glycerol] + O
OUT: 1065.9

###

Assay: xn = mol fraction of the nth substance listed
Details: 308.15 K; 98.93 kPa; Liquid; x1 = 0.17
± gives the expanded uncertainty stated by the source.
Assay endpoint: mass density
Answer shape: numeric part, then the unit.

Some entries whose results are on file:
[[record]]
compound = "OCC(O)CO [glycerol] + O"
result = "1121.66 ± 1.6 kg/m3"

[[record]]
compound = "OCCCO [propan-1,3-diol] + O"
result = "1026.23 ± 1.5 kg/m3"

[[record]]
compound = "CCCO [propan-1-ol] + O"
result = "922.05 ± 1.3 kg/m3"


IN: Look up mass density for this compound: CC(O)CO (centres undefined) [1,2-propanediol] + O
OUT: 1026.33 ± 1.5 kg/m3
